# measured_target: T1, RPtag(small) Nd2, Cd4 (Thermoanaerobacter tengcongensis)
# T1 peptide: RhodamineB-KIPNFIPAELKLITK
# assay_notes: fluorescence anisotropy; 2 nM rhodamine Nd2Cd4, unlabeled RPtag large variant titrated; bar of Ka = 1/Kd, right axis
No end group written: not given here. *: point of attachment. RhodamineB = CCN(CC)c1ccc2c(-c3ccccc3C(=O)*)c3ccc(=[N+](CC)CC)cc-3oc2c1
measured_metric: binding result

binder	measurement
f137e (designed binder, single mutant of RPtag large; also called RPtag(large) F137E) single chain: MGSSCHHHHHHSQDPNSSSMKEGKTIGLVISTLNNPFFVTLKNGAEEKAKELGYKIIVEDSQNDSSKELSNVEDLIQQKVDVLLINPVDSDAVVTAIKEANSKNIPVITIDRSANGGDVVSHIASDNVKGGEMAAEEIAKALKGKGNVVELEGIPGASAARDRGKGFDEAIAKYPDIKIVAKQAADFDRSKGLSVMENILQAQPKIDAVFAQNDEMALGAIKAIEAANRQGIIVVGFDGTEDALKAIKEGKMAATIAQQPALMGSLGVEMADKYLK	binds
